Values were extracted from patent US7989447B2.

TARGET_DESC: human neuronal constitutive NOS (nNOS) (Homo sapiens)
Sequence (P29475 whole entry): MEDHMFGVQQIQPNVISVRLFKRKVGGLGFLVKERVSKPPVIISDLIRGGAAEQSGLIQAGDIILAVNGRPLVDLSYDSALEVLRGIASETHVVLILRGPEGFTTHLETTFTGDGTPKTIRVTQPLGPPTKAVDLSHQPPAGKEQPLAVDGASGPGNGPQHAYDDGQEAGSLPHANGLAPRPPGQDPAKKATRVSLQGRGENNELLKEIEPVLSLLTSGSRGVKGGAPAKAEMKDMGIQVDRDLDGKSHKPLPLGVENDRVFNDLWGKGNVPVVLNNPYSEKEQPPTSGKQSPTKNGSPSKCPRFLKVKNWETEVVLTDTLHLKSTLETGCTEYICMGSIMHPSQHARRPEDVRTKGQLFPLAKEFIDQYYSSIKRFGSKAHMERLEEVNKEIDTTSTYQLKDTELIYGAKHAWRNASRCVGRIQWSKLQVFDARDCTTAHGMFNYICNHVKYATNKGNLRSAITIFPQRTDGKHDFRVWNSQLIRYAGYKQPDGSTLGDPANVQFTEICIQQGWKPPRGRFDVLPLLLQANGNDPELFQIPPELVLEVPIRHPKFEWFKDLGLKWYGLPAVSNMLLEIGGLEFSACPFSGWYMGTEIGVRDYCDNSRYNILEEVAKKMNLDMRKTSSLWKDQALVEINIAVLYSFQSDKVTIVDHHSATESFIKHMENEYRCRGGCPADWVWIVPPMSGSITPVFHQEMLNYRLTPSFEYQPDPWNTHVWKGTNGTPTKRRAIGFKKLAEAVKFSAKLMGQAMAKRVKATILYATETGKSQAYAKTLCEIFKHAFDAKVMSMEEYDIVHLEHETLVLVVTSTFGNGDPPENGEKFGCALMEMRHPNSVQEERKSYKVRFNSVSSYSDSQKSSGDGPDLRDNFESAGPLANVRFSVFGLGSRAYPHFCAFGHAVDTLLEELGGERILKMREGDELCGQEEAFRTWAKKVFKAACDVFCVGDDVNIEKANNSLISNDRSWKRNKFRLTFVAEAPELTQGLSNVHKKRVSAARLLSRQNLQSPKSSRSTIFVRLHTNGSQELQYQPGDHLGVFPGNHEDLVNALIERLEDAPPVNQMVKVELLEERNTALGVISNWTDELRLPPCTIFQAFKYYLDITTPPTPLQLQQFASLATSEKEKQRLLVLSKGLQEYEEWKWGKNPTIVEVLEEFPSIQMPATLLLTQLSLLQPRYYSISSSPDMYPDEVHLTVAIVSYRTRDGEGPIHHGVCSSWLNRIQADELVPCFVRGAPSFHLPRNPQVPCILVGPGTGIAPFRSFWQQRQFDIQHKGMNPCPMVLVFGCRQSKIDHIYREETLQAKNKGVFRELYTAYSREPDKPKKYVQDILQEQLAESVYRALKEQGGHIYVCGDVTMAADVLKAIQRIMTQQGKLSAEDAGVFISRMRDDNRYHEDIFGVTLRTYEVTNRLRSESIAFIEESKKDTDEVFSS
ASSAY_DETAILS: nNOS (Human) enzyme assay, radiometric conversion of [3H]L-arginine to [3H]L-citrulline
Format: biochemical
TEST_SETTINGS: human eNOS / human nNOS
Please note: true (1) applies when Ratio e/n is 30 or greater, and false (0) applies otherwise.

[
  {
    "COMPOUND": "CN1CCC(c2c[nH]c3cc(NC(=N)c4cccs4)ccc23)C1 (stereo not drawn)",
    "ANSWER_LABEL": "true (1)"
  },
  {
    "COMPOUND": "CCCN[C@H]1CC[C@H](c2c[nH]c3cc(NC(=N)c4cccs4)ccc32)CC1",
    "ANSWER_LABEL": "false (0)"
  },
  {
    "COMPOUND": "CN1CCCC1CCn1ccc2cc(CNC(=N)c3cccs3)ccc21 (stereo not drawn)",
    "ANSWER_LABEL": "false (0)"
  },
  {
    "COMPOUND": "N=C(Nc1ccc2c(ccn2CCCNC23CC4CC(CC(C4)C2)C3)c1)c1cccs1",
    "ANSWER_LABEL": "false (0)"
  },
  {
    "COMPOUND": "N=C(Nc1ccc2c(ccn2CCCNC2CC2)c1)c1cccs1",
    "ANSWER_LABEL": "true (1)"
  },
  {
    "COMPOUND": "CN1CCCC(n2ccc3cc(NC(=N)c4cccs4)ccc32)CC1 (stereo not drawn)",
    "ANSWER_LABEL": "true (1)"
  },
  {
    "COMPOUND": "CCN(CC)CCn1c(Cc2ccc(OC(F)(F)F)cc2)cc2cc(NC(=N)c3cccs3)ccc21",
    "ANSWER_LABEL": "false (0)"
  },
  {
    "COMPOUND": "N=C(Nc1ccc2c(ccn2C2CN3CCC2CC3)c1)c1cccs1 (stereo not drawn)",
    "ANSWER_LABEL": "true (1)"
  }
]
